systemTested: UniProt P21917
Sequence (P21917 whole entry): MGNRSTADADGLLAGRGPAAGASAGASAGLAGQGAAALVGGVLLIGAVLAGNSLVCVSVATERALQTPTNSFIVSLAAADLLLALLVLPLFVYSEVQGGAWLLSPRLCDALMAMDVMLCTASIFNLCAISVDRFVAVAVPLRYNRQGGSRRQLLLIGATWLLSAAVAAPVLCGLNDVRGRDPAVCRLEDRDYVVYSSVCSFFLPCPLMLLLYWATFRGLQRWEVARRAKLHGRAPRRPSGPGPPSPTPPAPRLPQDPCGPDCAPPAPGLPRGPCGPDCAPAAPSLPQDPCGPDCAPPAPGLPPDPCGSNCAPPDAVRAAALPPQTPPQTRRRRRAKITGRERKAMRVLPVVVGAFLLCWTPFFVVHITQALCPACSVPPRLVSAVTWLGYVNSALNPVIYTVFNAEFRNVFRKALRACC
assayOverview: Displacement of [3H]spiperone from cloned human dopamine D4.2 receptor in […] cells
pKi: −log10 of the molar value.

compoundString	pKi
O=C(N[C@H]1CCN(Cc2ccccc2F)C1)c1ccc(-c2cccs2)cc1	7.48
COc1cccc(CN2CC[C@H](NC(=O)c3ccc(-c4cccs4)cc3)C2)c1	7.85
Cc1ccc(CN2CC[C@H](NC(=O)c3cccc(-c4cccs4)c3)C2)cc1	8.40
O=C(N[C@H]1CCN(Cc2ccc(Cl)c(Cl)c2)C1)c1ccc(-c2cccs2)cc1	7.82

---

systemTested: D(2) dopamine receptor (Homo sapiens, UniProt P14416)
Sequence (P14416 whole entry): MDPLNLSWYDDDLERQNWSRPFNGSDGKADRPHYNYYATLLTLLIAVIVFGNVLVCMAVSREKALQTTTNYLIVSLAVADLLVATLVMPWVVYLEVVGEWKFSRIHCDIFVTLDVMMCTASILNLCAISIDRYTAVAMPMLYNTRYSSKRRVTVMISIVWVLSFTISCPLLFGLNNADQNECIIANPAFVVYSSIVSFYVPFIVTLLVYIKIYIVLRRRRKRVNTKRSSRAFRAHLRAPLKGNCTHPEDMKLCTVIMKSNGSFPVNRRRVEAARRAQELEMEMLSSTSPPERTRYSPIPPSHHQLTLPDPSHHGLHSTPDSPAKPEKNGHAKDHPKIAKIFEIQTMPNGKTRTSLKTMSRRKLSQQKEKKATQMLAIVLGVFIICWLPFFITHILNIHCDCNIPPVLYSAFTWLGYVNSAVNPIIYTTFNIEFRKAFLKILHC
assayOverview: Displacement of [3H]spiperone from human dopamine D2(short) receptor in rat pituitary GH4C1 cells
pKi: −log10 of the molar value.
Label rule, in plain words: pKi of 6 and up is T, under 6 is F.

compoundString	qualitativeLabel
COc1cccc(CN2CC[C@H](NC(=O)c3ccc(-c4cccs4)cc3)C2)c1	F
O=C(N[C@H]1CCN(Cc2ccc3c(c2)OCO3)C1)c1ccc(-c2cccs2)cc1	F
O=C(N[C@H]1CCN(Cc2ccc(OC(F)(F)F)cc2)C1)c1cccc(-c2cccs2)c1	T
O=C(N[C@H]1CCN(Cc2ccc(Cl)cc2)C1)c1cccc(-c2cccs2)c1	T

---

systemTested: UniProtKB P14416
assayOverview: Displacement of [3H]spiperone from human dopamine D2(short) receptor in rat pituitary GH4C1 cells
pKi: −log10 of the molar value.
observedProperty: pKi

compoundString	systemTested	observedProperty	measuredValue
O=C(N[C@H]1CCN(Cc2ccccc2F)C1)c1ccc(-c2cccs2)cc1	UniProtKB P14416	pKi	4.42
O=C(N[C@H]1CCN(Cc2ccc(F)c(F)c2)C1)c1ccc(-c2cccs2)cc1	UniProtKB P14416	pKi	4.74
O=C(N[C@H]1CCN(Cc2ccc(C(F)(F)F)cc2)C1)c1cccc(-c2cccs2)c1	UniProtKB P14416	pKi	5.89

# credit: ChEMBL document CHEMBL1141940
